# maps each entry to its Ki
- study-target: Carbonic anhydrase 7 (Homo sapiens, UniProt P43166)
- Sequence (P43166 whole entry): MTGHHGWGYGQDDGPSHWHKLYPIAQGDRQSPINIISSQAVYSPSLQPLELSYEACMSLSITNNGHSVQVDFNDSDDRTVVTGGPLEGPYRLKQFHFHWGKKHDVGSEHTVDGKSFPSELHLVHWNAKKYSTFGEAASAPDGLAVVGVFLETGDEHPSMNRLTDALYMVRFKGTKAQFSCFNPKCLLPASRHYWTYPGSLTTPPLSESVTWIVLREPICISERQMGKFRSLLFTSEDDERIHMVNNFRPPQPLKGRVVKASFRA
- experiment-description: Inhibition of human recombinant carbonic anhydrase 7 incubated for 15 mins prior to testing by stopped-flow CO2 hydration assay
Your answer should be a plain number; it is taken to be in nM.

Known Ki results, listed for orientation:
# compound, Ki, nM
rows = [
    ("CN1C(=O)/C(=N\\CCc2ccc(S(N)(=O)=O)cc2)c2cc(Cl)ccc21", 91),
    ("NS(=O)(=O)c1ccc(CC/N=C2\\NC(=O)/C(=C3/C(=O)Nc4ccc(Br)cc43)S2)cc1", 79.3),
    ("Cc1ccc2c(c1)/C(=C1/S/C(=N/CCc3ccc(S(N)(=O)=O)cc3)NC1=O)C(=O)N2", 67.2),
]

Query block: Item Cc1cc(C)c2c(c1)/C(=N/CCc1ccc(S(N)(=O)=O)cc1)C(=O)N2 has what recorded Ki?
Result block: 90.9
